All values here come from PubChem BioAssay (EPA / NIEHS).

Read-out: sulfotransferase 2A1 (SULT2A1), SULT2A1 (gene 6822)
Experiment: LTEA_HepaRG_SULT2A1: Life Technologies and Expression Analysis (LTEA) Assay for sulfotransferase 2A1 (SULT2A1) using HepaRG (AID 2283531)
Conditions: mRNA level, 48 h; actives raise or lower the signal
Active and inactive are the calls of the source. The calls were made as follows: active = hit-call score of the fitted dose curve at least 0.9, where 1 is the maximum; inactive = score below 0.9.

test-smiles: Cc1ccc(O)cc1
outcome: inactive
//
test-smiles: CCOC(=O)CC(CC(=O)OCC)(OC(C)=O)C(=O)OCC
outcome: inactive
//
test-smiles: CC1=CC(=O)CC(C)(C)C1
outcome: inactive
//
test-smiles: Oc1ccc2c(c1)-c1ccccc1C2
outcome: inactive

====

Read-out: Interferon-gamma inducible Protein 10 (IP10), CXCL10 (gene 3627)
Assay: BSK_BE3C_IP10: BioMAP Diversity Plus: BE3C Assay for Interferon-gamma inducible Protein 10 (IP10) Biomarker Activity (AID 2283034)
Conditions: primary human bronchial epithelial cells; actives raise or lower the signal
Active and inactive are the calls of the source. Rule for the calls: active = hit-call score of the fitted dose curve at least 0.9, where 1 is the maximum; inactive = score below 0.9.
Respond with a class label; see active, inactive

Consider the worked cases shown below.
molecule: CCOCCO
label: inactive
--
molecule: CNS(=O)(=O)c1cc(C(=O)N2CCC(CCN3C4CCC3CC(n3c(C)nc5ccccc53)C4)(c3cccc(F)c3)CC2)c(Cl)cc1F (configuration not stated)
label: inactive

Assay result, entry `CC(C)=CCC/C(C)=C\CO` — outcome?
inactive

Another molecule to check: `CC(C)CCCCCCOC(=O)c1ccc(C(=O)OCCCCCCC(C)C)c(C(=O)OCCCCCCC(C)C)c1`
inactive
